- Test system: duck salad (Heteranthera limosa)
- Test protocol: Test C flooded paddy test
- Assay type: in vivo
- Run conditions: flooded paddy test, Rate 62 g/ha; scale 0 to 100 (0 no effect, 100 complete control)
Reported endpoint: Plant response rating, Ducksalad
Please give the numeric answer without any surrounding text.

// fetch Plant response rating, Ducksalad for Cc1ccc(N2CCC(n3ccc(C(C)(C)C)n3)C2=O)cc1OC(F)F (centres unmarked) [Compound 79] ; system: duck salad (Heteranthera limosa)
0

Determine reported Plant response rating, Ducksalad for CC(C)(C)c1ccn(C2CCN(c3ccc4c(c3)CCC4)C2=O)n1 (centres unmarked) [Compound 105] ; test system: duck salad (Heteranthera limosa).
0

Give duck salad (Heteranthera limosa) Plant response rating, Ducksalad for the following compound: CC1CCc2cn(C3CCN(c4cccc(C(F)(F)F)c4)C3=O)nc21 (centres unmarked) [Compound 11]
0

State recorded Plant response rating, Ducksalad with duck salad (Heteranthera limosa), entry CCCC(C)c1ccn(C2CCN(c3cccc(OC)c3)C2=O)n1 (centres unmarked) [Compound 99] , no comment.
0

State recorded Plant response rating, Ducksalad with duck salad (Heteranthera limosa), entry CCC(CC)c1ccn(C2SCN(c3cccc(C(F)(F)F)c3)C2=O)n1 (centres unmarked) [Compound 21] , no comment.
80

---

- Tested on: goosegrass (Eleusine indica)
- Test protocol: Test C preemergence
- Type: in vivo
- Run conditions: Rate 125 g/ha; scale 0 to 100, 0 no effect, 100 complete control
Reported endpoint: Plant response rating, Goosegrass
I'd appreciate a reply containing only the number, no unit.

Look up and state reported Plant response rating, Goosegrass for CCCC(C)c1ccn(C2CCN(c3cccc(OCC)c3)C2=O)n1 (centres unmarked)
100

Identify Plant response rating, Goosegrass associated with the compound Cc1cc(C)nc(N2CCC(n3ccc(C(C)(C)C)n3)C2=O)c1 (centres unmarked)
90

Give reported Plant response rating, Goosegrass value for CCCOc1cc(N2CCC(n3ccc(C(C)(C)C)n3)C2=O)ccc1C (centres unmarked)
70

Note down Plant response rating, Goosegrass recorded for CCCC(C)c1ccn(C2CCN(c3ccc(Cl)c(OC)c3)C2=O)n1 (centres unmarked)
100

Output measured Plant response rating, Goosegrass for this item: COc1cc(N2CCC(n3ccc(C(C)C)n3)C2=O)ccc1C (centres unmarked)
100

Respond only with Plant response rating, Goosegrass recorded for COc1cc(N2CCC(n3ccc(C(C)C)n3)C2=O)ccc1Cl (centres unmarked)
100

Tell me its Plant response rating, Goosegrass given CCC(C)c1ccn(C2CCN(c3cccc(OC(C)C)c3)C2=O)n1 (centres unmarked) as the entry.
100

Note Plant response rating, Goosegrass for the compound shown: CCC(CC)c1ccn(C2CCN(c3ccc(F)c(C(F)(F)F)c3)C2=O)n1 (centres unmarked)
100

Fill in reported Plant response rating, Goosegrass for this entry: CC(C)OC(=O)c1cccc(N2CCC(n3ccc(C(C)(C)C)n3)C2=O)c1 (centres unmarked)
40

For the compound CC(C)c1cccc(N2CCC(n3ccc(C(C)(C)C)n3)C2=O)c1 (centres unmarked) , report Plant response rating, Goosegrass.
85

Quickly give me recorded Plant response rating, Goosegrass for CCOc1cccc(N2CCC(n3ccc(C(C)C)n3)C2=O)c1 (centres unmarked)
100

---

- Tested on: velvetleaf (Abutilon theophrasti)
- Test protocol: Test C preemergence
- Format: in vivo
- Run conditions: preemergence; Rate 250 g/ha; scale 0 to 100, 0 no effect, 100 complete control
Cut-off 20 on Plant response rating, Velvetleaf, inclusive. At or above means Yes; below means No.

Determine whether this compound has Plant response rating, Velvetleaf no lower than 20: CC(C)Oc1cccc(N2CCC(n3ccc(C(C)C)n3)C2=O)c1 (stereo not shown)
No

State whether the measured Plant response rating, Velvetleaf reaches 20, counting equality as reaching it, for CCCC(C)c1ccn(C2CCN(c3cccc(OCC)c3)C2=O)n1 (stereo not shown)
No

Reported Plant response rating, Velvetleaf reaches at least 20 for CCC(CC)c1ccn(C2CCN(c3ccc(Cl)c(OC)c3)C2=O)n1 (stereo not shown) ?
Yes

# check: Plant response rating, Velvetleaf of CCOc1cc(N2CCC(n3ccc(C(C)(C)C)n3)C2=O)ccc1C (stereo not shown) is greater than or equal to 20
Yes

Reported Plant response rating, Velvetleaf reaches at least 20 for COC(=O)c1cccc(N2CCC(n3ccc(C(C)(C)C)n3)C2=O)c1 (stereo not shown) ?
Yes

Determine whether measured Plant response rating, Velvetleaf meets or exceeds 20 for Cc1ccc(N2CCC(n3ccc(C(C)(C)C)n3)C2=O)cc1OCCCl (stereo not shown)
Yes

Record CC(C)(C)c1ccn(C2CCN(c3cccc([S+]([O-])C(F)(F)F)c3)C2=O)n1 (stereo not shown) ; criterion: Plant response rating, Velvetleaf no lower than 20. Met?
Yes

Confirm if Plant response rating, Velvetleaf reported for the compound CCOC(=O)c1cccc(N2CCC(n3ccc(C(C)(C)C)n3)C2=O)c1 (stereo not shown) is 20 or above.
No

For this compound, is measured Plant response rating, Velvetleaf 20 or higher? CCC(C)Oc1cccc(N2CCC(n3ccc(C(C)(C)C)n3)C2=O)c1 (stereo not shown)
No

Identify whether the reported Plant response rating, Velvetleaf of the following compound is 20 or greater: CCCC(C)c1ccn(C2SCN(c3cccc(OC(F)(F)F)c3)C2=O)n1 (stereo not shown)
No

Does CC(C)(C)c1ccn(C2CCN(c3cccc(I)c3)C2=O)n1 (stereo not shown) have a reported Plant response rating, Velvetleaf of at least 20?
No
